biological target: Prostaglandin D2 receptor 2 (Homo sapiens); assay: Displacement of [3H]PGD2 from human CRTH2 receptor expressed in CHO cells
Sequence (Q9Y5Y4 whole entry): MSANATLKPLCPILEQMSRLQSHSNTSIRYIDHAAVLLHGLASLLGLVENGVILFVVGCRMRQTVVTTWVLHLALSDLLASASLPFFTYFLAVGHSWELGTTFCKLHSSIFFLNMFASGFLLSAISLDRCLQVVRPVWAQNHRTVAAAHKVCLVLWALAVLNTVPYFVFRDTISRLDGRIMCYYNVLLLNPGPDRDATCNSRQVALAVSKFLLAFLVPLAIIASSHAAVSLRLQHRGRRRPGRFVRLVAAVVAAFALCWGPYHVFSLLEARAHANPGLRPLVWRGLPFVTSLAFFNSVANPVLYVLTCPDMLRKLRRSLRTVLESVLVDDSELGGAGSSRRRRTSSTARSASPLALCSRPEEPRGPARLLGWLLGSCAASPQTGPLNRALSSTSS
READOUT LABEL: Ki (nM)
The reply should contain only the number, in nM.

{"columns": ["MOLECULE", "MEASURED TARGET", "SCALE UNIT", "Ki"],
 "data": [
  ["Cc1noc(-c2ccccc2)c1CN1C(=O)CC2(C1=O)C(=O)N(CC(=O)O)c1ccc(Cl)cc12 (configuration not stated)", "Prostaglandin D2 receptor 2 (Homo sapiens)", "nM", 5.3],
  ["Cn1nnc2cc(CN3C(=O)CC4(C3=O)C(=O)N(CC(=O)O)c3ccc(Cl)cc34)ccc21 (configuration not stated)", "Prostaglandin D2 receptor 2 (Homo sapiens)", "nM", 1300],
  ["COc1cccc(CN2C(=O)C[C@@]3(C2=O)C(=O)N(CC(=O)O)c2ccc(Cl)cc23)c1", "Prostaglandin D2 receptor 2 (Homo sapiens)", "nM", 1170],
  ["O=C(O)CN1C(=O)C2(CC(=O)N(Cc3cccc(Cl)c3)C2=O)c2cc(Cl)ccc21 (configuration not stated)", "Prostaglandin D2 receptor 2 (Homo sapiens)", "nM", 68],
  ["CN1C(=O)CC2(C1=O)C(=O)N(CCCC(=O)O)c1ccc(F)cc12 (configuration not stated)", "Prostaglandin D2 receptor 2 (Homo sapiens)", "nM", 8900]
]}

Req: Would you kindly share the measured Ki for CS(=O)(=O)c1ccc(CN2C(=O)CC3(C2=O)C(=O)N(CC(=O)O)c2ccc(Cl)cc23)cc1 (configuration not stated) ?
Resp: 1510

Req: Try the molecule O=C(O)CN1C(=O)C2(CC(=O)N(Cc3ccccc3F)C2=O)c2cc(Cl)ccc21 (configuration not stated)
Resp: 37

Req: Try the molecule O=C1CC2(C(=O)N1Cc1ccccc1)C(=O)N(Cc1nnn[nH]1)c1ccc(Cl)cc12 (configuration not stated)
Resp: 1540

Req: Try the molecule O=C(O)CN1C(=O)C2(CC(=O)N(Cc3cccc(F)c3F)C2=O)c2cc(Cl)ccc21 (configuration not stated)
Resp: 25

Req: Try the molecule COc1ccccc1CN1C(=O)CC2(C1=O)C(=O)N(CC(=O)O)c1ccc(Cl)cc12 (configuration not stated)
Resp: 233

Req: Try the molecule `O=C(O)CN1C(=O)[C@]2(CC(=O)N(Cc3ccccc3F)C2=O)c2cc(Cl)ccc21`
Resp: 926

Req: Try the molecule CN1C(=O)CC2(C1=O)C(=O)N(CC(=O)O)c1ccc(Cl)cc12 (configuration not stated)
Resp: 7620

Req: Try the molecule COc1c(C)cnc(CN2C(=O)CC3(C2=O)C(=O)N(CC(=O)O)c2ccc(Cl)cc23)c1C (configuration not stated)
Resp: 12
